tested on: RXF 393 renal; assay: NCI tumour cell line growth inhibition, 48 h
Exercise: state measured TGI for each of the compounds provided.

Reported TGI, compound COC(=O)C(=O)C(C(=O)C(=O)Nc1ccc(OC)cc1[N+](=O)[O-])c1nc2ccc([N+](=O)[O-])cc2[nH]c1=O (stereo not given) : ____
> 100 µM

Reported TGI, compound `COc1ccc2c(c1OC)-c1c(c3ccc([N+](=O)[O-])cc3c(=O)n1CCCN)C2=O` : ____
10.1 µM

Reported TGI, compound `CSc1cc(-c2cc3ccccc3o2)oc(=O)c1C#N` : ____
> 100 µM

Reported TGI, compound `CCCCCCCCCCCC[C@@H](O)[C@H]1CC[C@H]([C@H]2CC[C@H]([C@H](O)CC[C@H](O)CCCCCCCC3=C[C@H](C)OC3=O)O2)O1` : ____
5.9 µM

Reported TGI, compound `CC(=O)Nc1ccc(C2C(C(=O)Nc3ccccc3)=C(C)NC(C)=C2C(=O)Nc2ccccc2)cc1` : ____
> 100 µM

Reported TGI, compound `Cc1c(C(=O)O)n2c(C)nnc2c2ccccc12` : ____
> 100 µM

Reported TGI, compound `C[CH2][Sn]([CH2]C)([O]C(=O)c1c(F)cccc1F)[O][Sn]([CH2]C)([CH2]C)[O]C(=O)c1c(F)cccc1F` : ____
26.6 µM

Reported TGI, compound `COc1ccc(C(=S)N(C)NC(=O)CC(=O)NN(C)C(=S)c2ccc(OC)cc2)cc1` : ____
92.3 µM

Reported TGI, compound `COc1cc(OC)c(/C=C/c2cc[n+](C)c3ccccc23)c(OC)c1` : ____
19.2 µM

Reported TGI, compound `COc1ccc(/C(Cl)=C(\CN(C)C)c2ccc(OC)c(OC)c2)cc1OC` : ____
> 28.6 µM

Reported TGI, compound COC1/C(=C\c2ccccc2I)c2ccccc2N1C(C)=O (stereo not given) : ____
22.3 µM

Reported TGI, compound O=C(OCC1OC(n2cc(C(F)(F)F)c(=O)[nH]c2=O)CC1OC(=O)c1ccc([N+](=O)[O-])cc1)c1ccc([N+](=O)[O-])cc1 (stereo not given) : ____
> 100 µM

Reported TGI, compound CCC12C=CCN3CCC4(c5cc(C6(C(=O)OC)CCCCCc7c6[nH]c6ccccc76)c(OC)cc5N(C)C4C(O)(C(=O)OC)C1OC(C)=O)C32 (stereo not given) : ____
3.52 µM

Reported TGI, compound `O=C(NC(=S)Nc1ccc2c(c1)Sc1ccccc1O2)c1ccccc1` : ____
64.5 µM

Reported TGI, compound `OCCN(CCO)c1ccc2c(-c3ccccc3)cc(N(CCO)CCO)nc2n1` : ____
> 100 µM

Reported TGI, compound `CC(=O)Oc1cc(C(C)C)c(OCCN(C)C)cc1C` : ____
> 100 µM

Reported TGI, compound Cc1ccc(C2=Nc3c(N)nc(N)nc3NC(c3cccc(Nc4ccnc5cc(C(F)(F)F)ccc45)c3)C2)cc1 (stereo not given) : ____
2.87 µM

Reported TGI, compound N#CC1CCCC2SC(F)(F)C(F)(F)C12 (stereo not given) : ____
> 100 µM

Reported TGI, compound `S=C(S)N1CCCCC1` : ____
> 406 µM

Reported TGI, compound CCOC(=O)N1CCN(P(=O)(Nc2ccc3nc(NC(=O)OC)[nH]c3c2)Oc2ccccc2)CC1 (stereo not given) : ____
> 100 µM

Reported TGI, compound `Cc1ccccc1NC(=O)C(=O)c1c(O)c2ccc(O)cc2oc1=O` : ____
> 100 µM

Reported TGI, compound `Cc1cc(=O)[nH]c(S(=O)(=O)NC(=S)Nc2ccc(Cl)cc2)n1` : ____
> 100 µM

Reported TGI, compound CC1=CC2C(=O)N(c3ccccc3)C(=O)C2CC1n1[nH]c(=O)n(Cc2ccccc2)c1=O (stereo not given) : ____
> 100 µM

Reported TGI, compound `COc1cc(-c2nn(-c3cccc(NC(=O)Nc4cccc(C(F)(F)F)c4)c3)cc2-c2ccncc2)ccc1Cl` : ____
1.95 µM

Reported TGI, compound `COc1ccc(-c2nc(Sc3c([N+](=O)[O-])ncn3C)n[nH]2)cc1` : ____
4.28 µM

Reported TGI, compound `CCCCNC(=O)c1cc(S(=O)(=O)n2cc[nH]c2=O)c(SC)cc1Cl` : ____
> 100 µM

Reported TGI, compound `CNC(=S)/C(C#N)=C(\N)N1CCN(C)CC1` : ____
> 100 µM

Reported TGI, compound `Cc1cc(Cl)ccc1OCc1nn2c(CCCCc3nnc4sc(COc5ccc(Cl)cc5C)nn34)nnc2s1` : ____
62.8 µM

Reported TGI, compound `CCSc1n/c(=C\c2ccc(N(C)C)cc2)c2nnnn12` : ____
> 100 µM

Reported TGI, compound O=C1C2c3[nH]c4ccccc4c3C3CCCCC3C2C(=O)N1c1ccccc1 (stereo not given) : ____
62.3 µM

Reported TGI, compound N#CNCC(COCc1ccccc1)c1ccccc1 (stereo not given) : ____
> 100 µM

Reported TGI, compound `Cc1cnc(-c2ccccc2)o1` : ____
> 100 µM

Reported TGI, compound `COc1ccc(-c2cc(=O)c3c(O)cc(O)cc3o2)cc1OC` : ____
> 100 µM

Reported TGI, compound `Nn1c(SCC(=O)O)nc2ccccc2c1=O` : ____
> 100 µM

Reported TGI, compound `N#CC(C#N)=Cc1c[nH]c(=O)[nH]c1=O` : ____
> 100 µM

Reported TGI, compound `CC(C)N(CCCNC(=O)Nc1ccc(C(C)(C)C)cc1)C[C@H]1O[C@@H](n2ccc3c(N)ncnc32)[C@H](O)[C@@H]1O` : ____
> 100 µM

Reported TGI, compound CC(=O)OCC1OC(Nc2ccc3nc(C)n(-c4ccccc4)c(=O)c3c2)C(OC(C)=O)C(OC(C)=O)C1OC(C)=O (stereo not given) : ____
> 50 µM

Reported TGI, compound `O=C(O)c1ccc(NCc2nc3cc(Cl)c(Cl)cc3[nH]2)cc1` : ____
> 100 µM

Reported TGI, compound `Cc1cccc2c(NCCCN(C)C)c3c([N+](=O)[O-])ccc(C)c3nc12` : ____
0.19 µM

Reported TGI, compound O=c1ncc(I)cn1C1CC(O)C(CO)O1 (stereo not given) : ____
> 3250 µM
